Target: T1, RADIL, Q96JH8
T1 sequence (Q96JH8 971-1071, limits assumed, looked up): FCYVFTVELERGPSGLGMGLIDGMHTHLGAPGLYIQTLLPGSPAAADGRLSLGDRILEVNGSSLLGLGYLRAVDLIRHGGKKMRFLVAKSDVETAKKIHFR
Assay: holdup assay
Design: key: below the threshold = too weak to quantify, mostly under pKd 3.1 to 4
Settings: plain residues with an end cap or a label only (N-terminal biotin on a linker: ado-ado)
READOUT: pKd
Please give the numeric answer without any surrounding text.

Inquiry: Reported pKd, binder TETASVCTKV [SLC23A1, Q9UHI7] : ____
Reply text: 3.96

Inquiry: Reported pKd, binder GFGEERESIL [KIDINS220, Q9ULH0] : ____
Reply text: 3.61

Inquiry: Reported pKd, binder FVHPILQSAV [PRKCA, P17252] : ____
Reply text: 3.57

Inquiry: Reported pKd, binder QKNKDKEYYV [NRXN3_rs746444206, Q9Y4C0] : ____
Reply text: 4.51
